- target_under_test: KRAS G12C and cRAF (Ras-binding domain) interaction (Homo sapiens (Human), UniProt P01116, C118S/C51S/C80L/G12C)
- Sequence (P01116 other isoform, or with tags, fused parts or gaps G12C/C51S/C80L/C118S): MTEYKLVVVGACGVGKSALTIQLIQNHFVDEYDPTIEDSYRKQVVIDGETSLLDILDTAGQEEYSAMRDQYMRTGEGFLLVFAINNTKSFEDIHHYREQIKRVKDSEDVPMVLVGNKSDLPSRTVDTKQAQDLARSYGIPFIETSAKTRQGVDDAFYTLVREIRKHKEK
- assay_info: Inhibition of KRAS G12C and cRAF binding (AlphaScreen)
- condition: additional exemplary compounds; KRAS G12C and cRAF binding; read-out: RAF1 RBD IC50
Reported IC50 values for a set of compounds

Recorded IC50 for C=CC(=O)N1CC[C@@H](N(C)c2nc(OC[C@]34CCCN3C[C@@H](F)C4)nc3c2CCN(c2cccc4cccc(Cl)c24)C3)C1 , please?
> 500 nM

Next entry: CN(c1nc(OC[C@@]23CCCN2C[C@H](F)C3)nc2c1CCN(c1cccc3cccc(Cl)c13)C2)[C@@H]1CCN(C(=O)/C=C/c2ncn(C)n2)C1
> 500 nM

Next entry: C=CC(=O)N1CC[C@@H](N(C)c2nc(OC[C@@]34CCCN3C[C@H](F)C4)nc3c(F)c(-c4cccc5c(C)c(F)ccc45)ncc23)C1
> 500 nM

Next entry: C=CC(=O)N1CCC[C@@H](N(C)c2nc(OCC34CCCN3CCC4)nc3c(F)c(-c4cccc5cccc(Cl)c45)ncc23)C1
> 500 nM

Next entry: CN(CCS(=O)(=O)/C=C/CC1CC1)c1nc(OC[C@@H]2CCCN2C)nc2c(F)c(-c3cccc4cccc(Cl)c34)ncc12
> 500 nM

Next entry: CN(c1nc(OCC23CCCN2CCC3)nc2c1CCN(c1cccc3ccc(F)c(Cl)c13)C2)[C@@H]1CCN(C#N)C1
10 to 100 nM

Next entry: CN(C)C/C=C/S(=O)(=O)CCN(C)c1nc(OCC23CCCN2CCC3)nc2c1CCN(c1cccc3ccc(F)c(Cl)c13)C2
< 10 nM

Next entry: N#CN1CC[C@H]2[C@H]1CCN2c1nc(OC[C@@]23CCCN2C[C@H](F)C3)nc2c(F)c(-c3cccc4cccc(Cl)c34)ncc12
100 to 500 nM

Next entry: Cc1nccc(/C=C/C(=O)N2C[C@@H]3CN(c4nc(OC[C@@]56CCCN5C[C@H](F)C6)nc5c(F)c(-c6cccc7cccc(Cl)c67)ncc45)C[C@@H]3C2)n1
> 500 nM

###

- target_under_test: KRAS G12C and cRAF (Ras-binding domain) interaction (Homo sapiens (Human), UniProt P01116, C118S/C51S/C80L/G12C)
- assay_info: Inhibition of KRAS G12C and cRAF binding (AlphaScreen)
- condition: GMPPNP-loaded KRAS G12C, 19-20 hours incubation with compound; read-out: IC50 (Inhibition of KRAS G12C and cRAF Binding)
pIC50: −log10 of the molar value.
quantity: pIC50

Below are worked cases with known answers.
| compound | observed_value |
| --- | --- |
| Cc1cc(/C=C/C(=O)N2CCN(c3nc(OC[C@@]45CCCN4C[C@H](F)C5)nc4c(F)c(-c5cccc6cccc(Cl)c56)ncc34)CC2)nc(C)n1 | 6.30 to 7.00 |
| Cc1nccc(/C=C/C(=O)N2CCC[C@@H](N(C)c3nc(OC[C@@]45CCCN4C[C@H](F)C5)nc4c(F)c(-c5cccc6cccc(Cl)c56)ncc34)C2)n1 | < 6.30 |
| COC(=O)/C=C/C(=O)N1CCC(N(C)c2nc(OC[C@@H]3CCCN3C)nc3c2CCN(c2cccc4cccc(Cl)c24)C3)C1 (stereo partly shown) | 7.00 to 8.00 |

Query compound follows.
Recorded pIC50 for Cc1noc(/C=C/C(=O)N2CC[C@@H](N(C)c3nc(OC[C@@]45CCCN4C[C@H](F)C5)nc4c3CCN(c3cccc5cccc(Cl)c35)C4)C2)n1 , please?
> 8.00
